Target: T1, human Trop-2 expressed on cell surface (human, UniProt P09758 27-323)
T1 sequence (looked up): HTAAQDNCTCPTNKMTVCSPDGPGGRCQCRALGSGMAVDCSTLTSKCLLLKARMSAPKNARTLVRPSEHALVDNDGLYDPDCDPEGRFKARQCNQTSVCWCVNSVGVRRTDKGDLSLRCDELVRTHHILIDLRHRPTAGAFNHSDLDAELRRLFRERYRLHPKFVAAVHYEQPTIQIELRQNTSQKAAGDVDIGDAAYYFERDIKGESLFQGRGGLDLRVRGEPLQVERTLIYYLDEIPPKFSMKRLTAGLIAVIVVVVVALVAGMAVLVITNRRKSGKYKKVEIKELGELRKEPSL
Experiment: cell-based or functional assay
List of Internalization %, MCF-7, 0.25 µg/ml, 1 h values.
Give just the number in %; leave the unit off.

Name the recorded Internalization %, MCF-7, 0.25 µg/ml, 1 h for 65D5 (antibody, V domains shown, Rabbit-derived clone; LEM construct: VH + rabbit IgG CH1 + human IgG1 CH2-CH3) VH: QEQLKESGGGLVQPGGSLKLSCKASGFDFNAYGVSWVRQAPGKGLEWIAYIYPAFHNTYYATWVNGRFTISSHNAQNTLYLQLNTLTAADTATYFCARDAGTTDYNFNLWGPGTLVTVSS VL: DIVMTQTPASVSEPVGGTVTIKCQASQSISSYLAWYQQKPGQPPKLLIYEATKLTSGVSSRFSGSGYGTEFTLTISGVECADAATYYCQQALTVGDVDNPFGGGSEVVVK . 18

Name the recorded Internalization %, MCF-7, 0.25 µg/ml, 1 h for 74F11/15F5 (antibody, human IgG1, V domains shown, LEM construct: VH + rabbit IgG CH1 + human IgG1 CH2-CH3) VH: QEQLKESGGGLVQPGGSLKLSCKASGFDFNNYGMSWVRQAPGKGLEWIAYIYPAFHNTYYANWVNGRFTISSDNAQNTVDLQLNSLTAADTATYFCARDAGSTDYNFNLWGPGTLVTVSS VL: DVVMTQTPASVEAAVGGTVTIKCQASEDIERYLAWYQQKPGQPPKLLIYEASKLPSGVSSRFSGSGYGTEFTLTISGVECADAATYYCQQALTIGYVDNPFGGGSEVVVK . 22
